Molecular target: FLAG-α1b-adrenoceptor TMI-TMIV-eYFP (Mesocricetus auratus, UniProt P18841, L166A/L167A/L65A/V66A)
Sequence (P18841 whole entry L65A/V66A/L166A/L167A): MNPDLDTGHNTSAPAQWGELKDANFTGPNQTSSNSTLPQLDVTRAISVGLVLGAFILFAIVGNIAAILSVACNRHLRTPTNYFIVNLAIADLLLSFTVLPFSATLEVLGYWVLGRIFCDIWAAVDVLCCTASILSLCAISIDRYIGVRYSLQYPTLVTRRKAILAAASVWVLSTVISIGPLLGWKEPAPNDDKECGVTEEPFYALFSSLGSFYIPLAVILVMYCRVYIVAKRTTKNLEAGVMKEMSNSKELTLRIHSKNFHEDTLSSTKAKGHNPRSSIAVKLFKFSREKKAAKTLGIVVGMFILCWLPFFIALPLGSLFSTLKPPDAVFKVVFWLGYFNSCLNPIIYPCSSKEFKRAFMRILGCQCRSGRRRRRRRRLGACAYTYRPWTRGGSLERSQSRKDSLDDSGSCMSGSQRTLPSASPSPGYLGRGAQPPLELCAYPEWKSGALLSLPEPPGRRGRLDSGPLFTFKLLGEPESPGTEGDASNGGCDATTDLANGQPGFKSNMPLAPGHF
Conditions: pKi, [3H]prazosin competition binding
MEASURED ATTRIBUTE: pKi
Units for pKi: none; it is -log10 of a concentration expressed in mol/L.

Value of measured pKi for the entry CNC[C@H](O)c1ccc(O)c(O)c1 [adrenaline] : 7.20

* * *

Target protein (sequence): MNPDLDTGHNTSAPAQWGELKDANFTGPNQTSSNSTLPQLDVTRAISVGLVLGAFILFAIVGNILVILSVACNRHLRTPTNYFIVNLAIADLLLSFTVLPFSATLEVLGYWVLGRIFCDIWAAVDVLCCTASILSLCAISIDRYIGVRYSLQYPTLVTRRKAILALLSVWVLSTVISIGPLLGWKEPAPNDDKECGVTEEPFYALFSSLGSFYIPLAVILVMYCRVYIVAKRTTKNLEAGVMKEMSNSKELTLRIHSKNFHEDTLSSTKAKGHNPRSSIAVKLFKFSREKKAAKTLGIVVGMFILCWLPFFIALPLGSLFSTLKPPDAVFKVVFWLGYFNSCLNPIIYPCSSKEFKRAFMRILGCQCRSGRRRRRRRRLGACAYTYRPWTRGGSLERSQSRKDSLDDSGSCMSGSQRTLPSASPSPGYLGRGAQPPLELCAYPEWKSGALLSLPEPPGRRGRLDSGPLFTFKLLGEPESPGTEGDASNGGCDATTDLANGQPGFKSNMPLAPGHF
MEASURED ATTRIBUTE: Ki (µM)
Write it as a number; the unit µM goes unstated.

Briefly, Ki measured for CNC[C@H](O)c1ccc(O)c(O)c1 : 0.501
